test system: LoVo; assay: Photocytotoxicity against UV irradiated human LoVo cells after 24 hrs by MTT assay; type: functional, cell-based; conditions: lovo
quantity: pEC50
One number for each entry, as −log10 of the molar value.

Q: LoVo / pEC50 / COC(=O)[C@@H]1CCCN1Cc1cc2ccccc2c(-c2c(O)c(CN3CCC[C@H]3C(=O)OC)cc3ccccc23)c1O (stereo in doubt; (S,S,S)-5) : value?
A: 6.66

###

test: Induction of pBR322 cross-linking after irradiation by alkaline agarose gel assay; settings: Escherichia coli
Answer each item with its documented Minimum concentration for DNA interstrand cross-linking.
Give bare numbers, in µM.

For orientation, consider the following solved cases.
Q: What measured Minimum concentration for DNA interstrand cross-linking goes with NCCCC[C@H](NCc1cc2ccccc2c(-c2c(O)c(CN[C@@H](CCCCN)C(=O)O)cc3ccccc23)c1O)C(=O)O ?
A: 20

Q: What measured Minimum concentration for DNA interstrand cross-linking goes with O=C(O)[C@@H]1CCCN1Cc1cc2ccccc2c(-c2c(O)c(CN3CCC[C@H]3C(=O)O)cc3ccccc23)c1O (stereo in doubt; (R,S,S)-6) ?
A: 2.5

Q: What measured Minimum concentration for DNA interstrand cross-linking goes with O=C(O)[C@@H]1CCCN1Cc1cc2ccccc2c(-c2c(O)c(CN3CCC[C@H]3C(=O)O)cc3ccccc23)c1O (stereo in doubt; (S,S,S)-6) ?
A: 2.5

Look up Minimum concentration for DNA interstrand cross-linking for the entries below, preserving their order.
1. C[N+](C)(C)Cc1cc2ccccc2c(-c2c(O)c(C[N+](C)(C)C)cc3ccccc23)c1O
2. COC(=O)[C@@H](NCc1cc2ccccc2c(-c2c(O)c(CN[C@H](C(=O)OC)C(C)C)cc3ccccc23)c1O)C(C)C
3. COC(=O)[C@@H]1CCCN1Cc1cc2ccccc2c(-c2c(O)c(CN3CCC[C@H]3C(=O)OC)cc3ccccc23)c1O (stereo in doubt; (R,S,S)-5)

A:
[1.25, 5, 20]

Q: What measured Minimum concentration for DNA interstrand cross-linking goes with COC(=O)[C@@H]1CCCN1Cc1cc2ccccc2c(-c2c(O)c(CN3CCC[C@H]3C(=O)OC)cc3ccccc23)c1O (stereo in doubt; (S,S,S)-5) ?
A: 20
